- Tested on: mouse carcinogenicity bioassay, TD50 from CPDB
- METHOD_NOTES: DSSTox (CPDBAS) Carcinogenic Potency Database Summary Mouse Bioassay Results
- RUN_CONDITIONS: TD50_Mouse_Note: TD50 is harmonic mean of more than one positive test; TargetSites_Mouse_Female: harderian gland; liver; vascular system

{"SMILES_TEXT": "Nc1ccc(-c2ccc(N)cc2)cc1", "Potency": "0.0766 mmol/kg/day"}

---

- Test system: mouse carcinogenicity bioassay, TD50 from CPDB
- METHOD_NOTES: DSSTox (CPDBAS) Carcinogenic Potency Database Summary Mouse Bioassay Results
- RUN_CONDITIONS: TD50_Mouse_Note: TD50 is harmonic mean of more than one positive test; TargetSites_Mouse_Female: no positive results
QUANTITY_MEASURED: Potency

{"MOLECULE": "ClCCOCCCl", "EXPERIMENTAL_TARGET": "mouse carcinogenicity bioassay, TD50 from CPDB", "QUANTITY_MEASURED": "Potency", "EXPERIMENTAL_VALUE": "0.0818 mmol/kg/day"}
{"MOLECULE": "CC(C)N(C(=O)SC/C(Cl)=C/Cl)C(C)C", "EXPERIMENTAL_TARGET": "mouse carcinogenicity bioassay, TD50 from CPDB", "QUANTITY_MEASURED": "Potency", "EXPERIMENTAL_VALUE": "0.0988 mmol/kg/day"}
{"MOLECULE": "[CH3][Hg][Cl]", "EXPERIMENTAL_TARGET": "mouse carcinogenicity bioassay, TD50 from CPDB", "QUANTITY_MEASURED": "Potency", "EXPERIMENTAL_VALUE": "0.00578 mmol/kg/day"}
{"MOLECULE": "NNCCO", "EXPERIMENTAL_TARGET": "mouse carcinogenicity bioassay, TD50 from CPDB", "QUANTITY_MEASURED": "Potency", "EXPERIMENTAL_VALUE": "0.00522 mmol/kg/day"}
{"MOLECULE": "Cc1cc(C(C)(C)C)c(O)c(C(C)(C)C)c1", "EXPERIMENTAL_TARGET": "mouse carcinogenicity bioassay, TD50 from CPDB", "QUANTITY_MEASURED": "Potency", "EXPERIMENTAL_VALUE": "2.96 mmol/kg/day"}
{"MOLECULE": "OCCN(CCO)C(=S)S", "EXPERIMENTAL_TARGET": "mouse carcinogenicity bioassay, TD50 from CPDB", "QUANTITY_MEASURED": "Potency", "EXPERIMENTAL_VALUE": "0.172 mmol/kg/day"}
{"MOLECULE": "C=C1C(C)(C)[C@@]2(Cl)C(Cl)[C@]1(Cl)C(Cl)(Cl)C2(Cl)Cl (stereo partly drawn)", "EXPERIMENTAL_TARGET": "mouse carcinogenicity bioassay, TD50 from CPDB", "QUANTITY_MEASURED": "Potency", "EXPERIMENTAL_VALUE": "0.00234 mmol/kg/day"}
{"MOLECULE": "OC(O)C(Cl)(Cl)Cl", "EXPERIMENTAL_TARGET": "mouse carcinogenicity bioassay, TD50 from CPDB", "QUANTITY_MEASURED": "Potency", "EXPERIMENTAL_VALUE": "0.604 mmol/kg/day"}

---

Consider the following compounds and their measured Potency readings.
- Test system: mouse carcinogenicity bioassay, TD50 from CPDB
- METHOD_NOTES: DSSTox (CPDBAS) Carcinogenic Potency Database Summary Mouse Bioassay Results
- RUN_CONDITIONS: TD50_Mouse_Note: TD50 is harmonic mean of more than one positive test; TargetSites_Mouse_Female: lung; stomach

{"SMILES_TEXT": "CCCCN(N)CCCC", "Potency": "0.313 mmol/kg/day"}
{"SMILES_TEXT": "C=CCN(N)CC=C", "Potency": "0.264 mmol/kg/day"}

---

- System: mouse carcinogenicity bioassay, TD50 from CPDB
- METHOD_NOTES: DSSTox (CPDBAS) Carcinogenic Potency Database Summary Mouse Bioassay Results
- RUN_CONDITIONS: TD50_Mouse_Note: TD50 is harmonic mean of more than one positive test; TargetSites_Mouse_Female: hematopoietic system; ovary
- Excerpt: The Carcinogenic Potency Database (CPDB) is a unique and widely used international resource of the results of over 6500 chronic, long-term animal cancer tests on over 1500 chemical substances. The CPDB provides easy access to the bioassay literature, with qualitative and quantitative analyses of both positive and negative experiments that have been published over the past 50 years in the general literature and by the National Cancer Institute/National Toxicology Program. […]
QUANTITY_MEASURED: Potency

{"SMILES_TEXT": "O=C1OC(c2ccc(O)cc2)(c2ccc(O)cc2)c2ccccc21", "EXPERIMENTAL_VALUE": "3.68 mmol/kg/day"}

---

- Tested on: mouse carcinogenicity bioassay, TD50 from CPDB
- METHOD_NOTES: DSSTox (CPDBAS) Carcinogenic Potency Database Summary Mouse Bioassay Results
- RUN_CONDITIONS: TD50_Mouse_Note: positive test results only by intraperitoneal or intravenous injection; TD50 is harmonic mean of more than one positive; TargetSites_Mouse_Female: hematopoietic system; lung
Consider the following compounds and their measured Potency readings.

{"COMPOUND": "O=P1(N(CCCl)CCCl)NCCCO1 (stereo not drawn)", "EXPERIMENTAL_TARGET": "mouse carcinogenicity bioassay, TD50 from CPDB", "Potency": "0.0228 mmol/kg/day"}
{"COMPOUND": "O[C@H]([C@H](O)[C@@H](O)CBr)[C@H](O)CBr", "EXPERIMENTAL_TARGET": "mouse carcinogenicity bioassay, TD50 from CPDB", "Potency": "0.0357 mmol/kg/day"}
{"COMPOUND": "O[C@@H]([C@H](O)[C@@H](O)CBr)[C@@H](O)CBr", "EXPERIMENTAL_TARGET": "mouse carcinogenicity bioassay, TD50 from CPDB", "Potency": "0.0484 mmol/kg/day"}

---

- Tested on: mouse carcinogenicity bioassay, TD50 from CPDB
- METHOD_NOTES: DSSTox (CPDBAS) Carcinogenic Potency Database Summary Mouse Bioassay Results
- RUN_CONDITIONS: TD50_Mouse_Note: TD50 is harmonic mean of more than one positive test; TargetSites_Mouse_Female: clitoral gland; lung; stomach

{"SMILES_TEXT": "C/C=N/N(C)C=O", "Potency": "0.0251 mmol/kg/day"}

---

- System: mouse carcinogenicity bioassay, TD50 from CPDB
- METHOD_NOTES: DSSTox (CPDBAS) Carcinogenic Potency Database Summary Mouse Bioassay Results
- RUN_CONDITIONS: TD50_Mouse_Note: TD50 is harmonic mean of more than one positive test; TargetSites_Mouse_Female: liver; lung; stomach
- Source text: The Carcinogenic Potency Database (CPDB) is a unique and widely used international resource of the results of over 6500 chronic, long-term animal cancer tests on over 1500 chemical substances. The CPDB provides easy access to the bioassay literature, with qualitative and quantitative analyses of both positive and negative experiments that have been published over the past 50 years in the general literature and by the National Cancer Institute/National Toxicology Program. […]
Some molecules, each annotated with its measured Potency.
QUANTITY_MEASURED: Potency

{"MOLECULE": "c1ccc2occc2c1", "EXPERIMENTAL_TARGET": "mouse carcinogenicity bioassay, TD50 from CPDB", "EXPERIMENTAL_VALUE": "0.212 mmol/kg/day"}
{"MOLECULE": "O=P(OCC(Br)CBr)(OCC(Br)CBr)OCC(Br)CBr (stereo not given)", "EXPERIMENTAL_TARGET": "mouse carcinogenicity bioassay, TD50 from CPDB", "EXPERIMENTAL_VALUE": "0.183 mmol/kg/day"}
{"MOLECULE": "Cn1c(N)nc2c3cccnc3ccc21", "EXPERIMENTAL_TARGET": "mouse carcinogenicity bioassay, TD50 from CPDB", "EXPERIMENTAL_VALUE": "0.0989 mmol/kg/day"}
{"MOLECULE": "CC[C@H](C)C(=O)O[C@H]1C[C@@H](C)C=C2C=C[C@H](C)[C@H](CC[C@@H]3C[C@@H](O)CC(=O)O3)[C@H]21", "EXPERIMENTAL_TARGET": "mouse carcinogenicity bioassay, TD50 from CPDB", "EXPERIMENTAL_VALUE": "1.27 mmol/kg/day"}
{"MOLECULE": "Nc1c(Br)cc(Br)c2c1C(=O)c1ccccc1C2=O", "EXPERIMENTAL_TARGET": "mouse carcinogenicity bioassay, TD50 from CPDB", "EXPERIMENTAL_VALUE": "1.25 mmol/kg/day"}

---

- Tested on: mouse carcinogenicity bioassay, TD50 from CPDB
- METHOD_NOTES: DSSTox (CPDBAS) Carcinogenic Potency Database Summary Mouse Bioassay Results
- RUN_CONDITIONS: TD50_Mouse_Note: TD50 is harmonic mean of more than one positive test; TargetSites_Mouse_Female: liver; urinary bladder
QUANTITY_MEASURED: Potency

{"SMILES_TEXT": "Nc1ccc(-c2ccccc2)cc1", "EXPERIMENTAL_TARGET": "mouse carcinogenicity bioassay, TD50 from CPDB", "EXPERIMENTAL_VALUE": "0.0124 mmol/kg/day"}
{"SMILES_TEXT": "COc1ccc(C)cc1N", "EXPERIMENTAL_TARGET": "mouse carcinogenicity bioassay, TD50 from CPDB", "EXPERIMENTAL_VALUE": "0.396 mmol/kg/day"}
